target: Connexin46 (Cx46) hemichannel (Homo sapiens); construct: gene GJA3; human Cx46tGFP (turbo GFP fusion) expressed in HeLa cells; test: DAPI uptake dose response in Cx46tGFP HeLa cells; format: cell-based
test-readout: IC50 (nM)
Output spec: scalar in nM, unitless text.

For NC[C@H]1O[C@H](O[C@H]2[C@H](O)[C@@H](O[C@H]3O[C@H](CO)[C@@H](O)[C@H](N)[C@H]3O)[C@H](N)C[C@@H]2N)[C@H](O)[C@@H](O)[C@@H]1O [kanamycin] , what is its reported IC50? 1700

* * *

biological target: Connexin46 (Cx46) hemichannel (Homo sapiens); construct: gene GJA3; human Cx46tGFP (turbo GFP fusion) expressed in HeLa cells; experiment: DAPI uptake dose response in Cx46tGFP HeLa cells; whole-cell patch clamp ([…] KI04 decreased currents); format: cell-based
test-readout: IC50

For CCCCCCCCCCCC(=O)NC[C@@H]1O[C@H](O[C@H]2[C@H](O)[C@@H](O[C@H]3O[C@H](CO)[C@@H](O)[C@H](N)[C@H]3O)[C@H](N)C[C@@H]2N)[C@H](O)[C@@H](O)[C@@H]1O , what is its reported IC50? ~7.7 µM
